# System: UO-31 renal
# Method: NCI-60 one-dose screen, 48 h
# Condition details: 10 µM unless noted
The panel holds about 83,000 compounds, 20% with a hit somewhere; the sample as a whole holds those more often. The source made the active and inactive calls. The calls were made as follows: active = growth percent below 10; inactive = the rest.
Labels: active, inactive

INSERT INTO assay_data (compound, study_system, class_label) VALUES
  ('O=C(Nc1ccc(-c2nc(N3CCOCC3)c3cccn3n2)cc1)Nc1cccnc1', 'UO-31 renal', 'active'),
  ('C=C(C)[C@@H]1CC[C@]2(C(=O)N3CCN(C)CC3)CC[C@]3(C)[C@H](CC[C@@H]4[C@@]5(C)CC(=C/c6ccncc6)/C(=N/O)C(C)(C)[C@@H]5CC[C@]43C)[C@@H]12', 'UO-31 renal', 'inactive'),
  ('O=C1c2ccc3c4ccc5c6c(ccc(c7ccc(c2c37)C(=O)N1CCC[P+](c1ccccc1)(c1ccccc1)c1ccccc1)c64)C(=O)N(CCC[P+](c1ccccc1)(c1ccccc1)c1ccccc1)C5=O', 'UO-31 renal', 'inactive'),
  ('COc1ccc(C2c3sc4c(F)cccc4c3Oc3nc[nH]c(=O)c32)cc1 (stereo unspecified)', 'UO-31 renal', 'inactive'),
  ('COc1ccc(-c2cn(-c3cc(OC)c(OC)c(OC)c3)c(=O)n2C(C)=O)cc1', 'UO-31 renal', 'inactive'),
  ('CCc1n(Cc2ccc3ccccc3c2)cc[n+]1Cc1ccc2ccccc2c1', 'UO-31 renal', 'inactive'),
  ('COc1cc(/C=C/C(=O)c2cccc(Nc3nc(Nc4ccccc4)nc(Nc4ccccc4)n3)c2)cc(OC)c1OC', 'UO-31 renal', 'inactive'),
  ('O=C(Cn1c(-c2ccc([N+](=O)[O-])cc2)nc2ccccc21)NNC(=O)c1cccnc1', 'UO-31 renal', 'inactive'),
  ('N#Cc1c(-c2cccs2)cc(-c2cccnc2)[nH]c1=O', 'UO-31 renal', 'inactive'),
  ('CC1(c2ccccc2O)NN=C(/N=C/c2cccc([N+](=O)[O-])c2)N1C(Cc1c[nH]c2ccccc12)C(=O)O (stereo unspecified)', 'UO-31 renal', 'inactive'),
  ('CN1C(=O)N(C)C2Nn3c(s/c(=C\c4ccc(C(F)(F)F)cc4)c3=O)=NC21 (stereo unspecified)', 'UO-31 renal', 'inactive'),
  ('COc1ccc2nc(NC(=O)CSc3nnc4n3S(=O)(=O)c3ccccc3N4C)sc2c1', 'UO-31 renal', 'active'),
  ('Cc1ccc(S(=O)(=O)N2CCCC2CO)cc1 (stereo unspecified)', 'UO-31 renal', 'inactive'),
  ('C#Cc1cccc(Nc2ncnc3ccc(-c4cncc(NS(C)(=O)=O)c4)cc23)c1', 'UO-31 renal', 'inactive'),
  ('CCCCCOc1ccc(C(=O)/C(Br)=C/C(=O)O)cc1', 'UO-31 renal', 'inactive'),
  ('O=C1/C(=C/c2cccs2)SC(=S)N1CCCN1CCOCC1', 'UO-31 renal', 'inactive'),
  ('C=C1CC[C@@H]2[C@](C)(COC(C)=O)[C@H](OC(C)=O)CC[C@@]2(C)[C@@H]1CC(Sc1ccccc1)C1=CCOC1=O (stereo partly specified)', 'UO-31 renal', 'inactive'),
  ('O=C(/C=C/c1ccc(Cl)cc1)c1cccc(Nc2nc(Nc3ccccc3)nc(Nc3ccccc3)n2)c1', 'UO-31 renal', 'inactive'),
  ('CCn1cc(C(=O)N/N=C/c2cccs2)c(=O)c2cc(F)c(N3CCNC(C)C3)c(F)c21 (stereo unspecified)', 'UO-31 renal', 'inactive'),
  ('Cc1ccc(NC(=S)NNC(=S)NNc2ccccc2)cc1C', 'UO-31 renal', 'inactive'),
  ('CC(C)OC(=O)c1ccc2[nH]c(O)c(C(=Nc3ccc(N(C)C(=O)CN4CCN(C)CC4)cc3)c3ccccc3)c2c1', 'UO-31 renal', 'active'),
  ('COc1cnc2c(c1)C(=O)c1c-2n(CCCNCCO)c(=O)c2ccncc12', 'UO-31 renal', 'active'),
  ('C=C1C(=O)O[C@H]2[C@H]1CC/C(COC(=O)N[C@H]1C[C@H](O[C@H]3C[C@](O)(C(=O)CO)Cc4c(O)c5c(c(O)c43)C(=O)c3c(OC)cccc3C5=O)O[C@@H](C)[C@H]1O)=C\CC[C@@]1(C)O[C@@H]21', 'UO-31 renal', 'inactive'),
  ('COc1ccc2c3c([nH]c2c1)C(=O)c1nc(C)ccc1C3=O', 'UO-31 renal', 'inactive'),
  ('COc1ccc(/C=C2\COc3ccc(O)c(O)c3C2=O)cc1', 'UO-31 renal', 'active'),
  ('O=C(NCCCCNC(=O)OCc1ccc2c(Cl)cc(Cl)c(O)c2n1)OCc1ccc2c(Cl)cc(Cl)c(O)c2n1', 'UO-31 renal', 'inactive'),
  ('Cn1cc(-c2csc(-c3ccc(Cl)cc3)n2)c2cccnc21', 'UO-31 renal', 'active'),
  ('COC(=O)[C@]1(C)CCC[C@]2(C)[C@H]3C[C@H]4C(C(C)C)=C[C@]3(CC[C@H]21)[C@H]1[C@@H]4[C@@H](OCCC#N)CC[C@@H]1OCCC#N', 'UO-31 renal', 'inactive'),
  ('O=C1COCCN1c1ccc(Nc2nc(Cl)nc(OCc3cn(Cc4ccccc4)nn3)n2)cc1', 'UO-31 renal', 'inactive'),
  ('CN1CCN(c2ccc(C(=O)Nc3cccc(C#Cc4cccc5[nH]nc(N)c45)c3)cc2C(F)(F)F)CC1', 'UO-31 renal', 'active'),
  ('CCN(CC)c1ccc(/C=C/C(=O)c2ccc(Nc3nc(Nc4ccccc4)nc(Nc4ccccc4)n3)cc2)cc1', 'UO-31 renal', 'inactive'),
  ('CCC(C)N(c1ccc(Cl)cc1)c1nc(-c2ccc(Br)cc2)cs1 (stereo unspecified)', 'UO-31 renal', 'inactive'),
  ('CC1(C)CC[C@]2(C(=O)O)CC[C@]3(C)C(=CC[C@@H]4[C@@]5(C)C/C(=C/O)C(=O)C(C)(C)[C@@H]5CC[C@]43C)[C@@H]2C1', 'UO-31 renal', 'inactive'),
  ('O=C(Nc1ncc(Cc2ccc(Cl)c(C(F)(F)F)c2)s1)c1ccc2nnsc2c1', 'UO-31 renal', 'inactive'),
  ('Cc1ccc(C2=Nc3c(N)ncnc3NC(c3ccc4c(c3)OCO4)C2)cc1 (stereo unspecified)', 'UO-31 renal', 'inactive'),
  ('CCn1c(=S)[nH]c2c(=O)n(C)c(=O)n(C)c21', 'UO-31 renal', 'inactive');
